Target: T1, hFc tagged human LAG3 ECD recombinant protein (human, UniProt P18627 23-450)
T1 construct: range 23-450; also called biotin labelled hFc tagged human LAG3 ECD; not shown: human IgG Fc tag
T1 sequence (looked up): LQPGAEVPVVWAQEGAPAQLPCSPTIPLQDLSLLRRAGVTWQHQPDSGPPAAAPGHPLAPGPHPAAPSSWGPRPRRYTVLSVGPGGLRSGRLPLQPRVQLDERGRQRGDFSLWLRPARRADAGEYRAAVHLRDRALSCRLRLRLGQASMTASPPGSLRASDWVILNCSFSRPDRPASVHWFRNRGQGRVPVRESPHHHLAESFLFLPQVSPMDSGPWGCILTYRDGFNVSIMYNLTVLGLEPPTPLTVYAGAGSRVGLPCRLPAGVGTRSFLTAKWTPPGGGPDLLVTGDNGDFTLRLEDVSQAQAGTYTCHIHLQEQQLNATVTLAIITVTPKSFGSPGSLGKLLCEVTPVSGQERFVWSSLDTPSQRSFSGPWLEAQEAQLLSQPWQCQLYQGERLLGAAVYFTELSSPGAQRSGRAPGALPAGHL
Assay: competitive ELISA: excess competitor, biotin hFc-LAG3 ECD, coated BAP-050
The label is true (1) for % competition below 3% and false (0) for % competition equal to or exceeding 3%.

{"Binder": "Antibody 057 (antibody, V domains shown, mouse hybridoma antibody) VH: QVQLQQSGAELARPGASVKLSCKASGFSFTSYGINWVKQRTGQGLEWIGEIYPRSGNTYYNEKLKGEATLTADRSSSTAYMELRSLTSEDSAVYFCARGGTYDGYYYAMDYWGQGTSVTVSS VL: NIVLTQSPASLAVSLGQRATISCRASESVDNFGSSFMHWYQQKPGQAPKLLIYRASNLESGIPARFGGSGSGTDFTLTIDPVETDDVATYYCQQVNKDPRTFGGGTKLEIK", "Assigned label": "false (0)"}

Switching to the query record.
In plain terms, does Antibody 029 (antibody, V domains shown, mouse hybridoma antibody) VH: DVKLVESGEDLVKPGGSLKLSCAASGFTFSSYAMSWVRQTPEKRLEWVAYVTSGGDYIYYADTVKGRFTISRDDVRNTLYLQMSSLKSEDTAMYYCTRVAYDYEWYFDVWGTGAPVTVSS VL: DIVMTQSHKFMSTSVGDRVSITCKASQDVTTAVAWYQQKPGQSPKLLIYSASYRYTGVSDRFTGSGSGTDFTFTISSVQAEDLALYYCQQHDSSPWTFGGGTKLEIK come in under 3% for % competition?
false (0)
